The reported measurements were obtained from paper PMC6114104.

- Test system: BT cells (bovine turbinate cells)
- Test Context: uninfected BT cells, 3 days; 100 μM maximum concentration tested
Where a name gives a salt, the structure may show the parent alone.
Test Readout: TC50

Bench note, BT cells (bovine turbinate cells): entry O=c1[nH]cc(F)c(=O)[nH]1 , its TC50 = 78 µM

Bench note, BT cells (bovine turbinate cells): entry O=c1c(-c2ccccc2)c1-c1ccccc1 , its TC50 = 19 µM

Bench note, BT cells (bovine turbinate cells): entry COc1cc(NC(C)CCCN)c2ncccc2c1 (stereo not shown) [Primaquine phosphate] , its TC50 = 47 µM

Bench note, BT cells (bovine turbinate cells): entry CCc1nc(N)nc(N)c1-c1ccc(Cl)cc1 , its TC50 = >100 µM

Bench note, BT cells (bovine turbinate cells): entry CCCCCCNC(=O)n1cc(F)c(=O)[nH]c1=O , its TC50 = >100 µM

Bench note, BT cells (bovine turbinate cells): entry CN1CCCC(n2nc(Cc3ccc(Cl)cc3)c3ccccc3c2=O)CC1 (stereo not shown) [Azelastine HCl] , its TC50 = 28 µM

Bench note, BT cells (bovine turbinate cells): entry O=C1CN(/N=C/c2ccc(-c3ccc([N+](=O)[O-])cc3)o2)C(O)=N1 , its TC50 = 52 µM

Bench note, BT cells (bovine turbinate cells): entry COc1cc2nc(N3CCN(C(=O)c4ccco4)CC3)nc(N)c2cc1OC , its TC50 = 45 µM

Bench note, BT cells (bovine turbinate cells): entry Oc1c(Cl)cc(Cl)c(Cl)c1Cc1c(O)c(Cl)cc(Cl)c1Cl , its TC50 = 56 µM

Bench note, BT cells (bovine turbinate cells): entry Oc1c(Cl)cc(Cl)c2cccnc12 , its TC50 = 16 µM

Bench note, BT cells (bovine turbinate cells): entry CN1CCN(CC/C=C2/c3ccccc3Sc3ccc(S(=O)(=O)N(C)C)cc32)CC1 , its TC50 = 30 µM

Bench note, BT cells (bovine turbinate cells): entry CC(C)/N=c1\cc2n(-c3ccc(Cl)cc3)c3ccccc3nc-2cc1Nc1ccc(Cl)cc1 , its TC50 = >100 µM

Bench note, BT cells (bovine turbinate cells): entry CCN(CC)C(=S)SSC(=S)N(CC)CC , its TC50 = 20 µM

Bench note, BT cells (bovine turbinate cells): entry C[C@H]1[C@H](OC(=O)CCC(=O)O)O[C@@H]2O[C@@]3(C)CC[C@H]4[C@H](C)CC[C@@H]1[C@@]24OO3 [Artesunate] , its TC50 = >100 µM

Bench note, BT cells (bovine turbinate cells): entry OCCN1CCN(CCCN2c3ccccc3Sc3ccc(Cl)cc32)CC1 , its TC50 = 14 µM

Bench note, BT cells (bovine turbinate cells): entry Cl.O=C1[C@H]2CCCC[C@H]2C(=O)N1CCCCN1CCN(c2nsc3ccccc23)CC1 [Perospirone HCl] , its TC50 = 86 µM

====

- System: S. neurona + GFP/FLUC parasites
- Assay Name: Luciferase-based S. neurona growth inhibition, EC50 determination
- Test Context: ratio of BT cell TC50 to S. neurona EC50
Structures can show the parent of a compound that is named as a salt.
Where TI (TC50/EC50) equals or exceeds 20, the correct label is 1; where it does not, the label is 0.

Query block: hey, is TI (TC50/EC50) for this one >= 20? O=C(c1ccc(F)cc1)C1CCN(CCn2c(=S)[nH]c3ccccc3c2=O)CC1
Result block: 1

Query block: hey, is TI (TC50/EC50) for this one >= 20? CC(C)/N=c1\cc2n(-c3ccc(Cl)cc3)c3ccccc3nc-2cc1Nc1ccc(Cl)cc1
Result block: 1

Query block: hey, is TI (TC50/EC50) for this one >= 20? C[C@H]1[C@H](OC(=O)CCC(=O)O)O[C@@H]2O[C@@]3(C)CC[C@H]4[C@H](C)CC[C@@H]1[C@@]24OO3 [Artesunate]
Result block: 1

Query block: hey, is TI (TC50/EC50) for this one >= 20? CN1CCN(CC/C=C2/c3ccccc3Sc3ccc(S(=O)(=O)N(C)C)cc32)CC1
Result block: 0

Query block: hey, is TI (TC50/EC50) for this one >= 20? Oc1c(Cl)cc(Cl)c2cccnc12
Result block: 0

Query block: hey, is TI (TC50/EC50) for this one >= 20? Cl.O=C1[C@H]2CCCC[C@H]2C(=O)N1CCCCN1CCN(c2nsc3ccccc23)CC1 [Perospirone HCl]
Result block: 1

Query block: hey, is TI (TC50/EC50) for this one >= 20? CCc1nc(N)nc(N)c1-c1ccc(Cl)cc1
Result block: 1

Query block: hey, is TI (TC50/EC50) for this one >= 20? O=C1CN(/N=C/c2ccc(-c3ccc([N+](=O)[O-])cc3)o2)C(O)=N1
Result block: 1

Query block: hey, is TI (TC50/EC50) for this one >= 20? COc1cc(NC(C)CCCN)c2ncccc2c1 (stereo not shown) [Primaquine phosphate]
Result block: 1

Query block: hey, is TI (TC50/EC50) for this one >= 20? CN1CCCC(n2nc(Cc3ccc(Cl)cc3)c3ccccc3c2=O)CC1 (stereo not shown) [Azelastine HCl]
Result block: 0

Query block: hey, is TI (TC50/EC50) for this one >= 20? OCCN1CCN(CCCN2c3ccccc3Sc3ccc(Cl)cc32)CC1
Result block: 0

Query block: hey, is TI (TC50/EC50) for this one >= 20? CCCCCCNC(=O)n1cc(F)c(=O)[nH]c1=O
Result block: 1

Query block: hey, is TI (TC50/EC50) for this one >= 20? O=c1c(-c2ccccc2)c1-c1ccccc1
Result block: 0

Query block: hey, is TI (TC50/EC50) for this one >= 20? O=c1[nH]cc(F)c(=O)[nH]1
Result block: 1

Query block: hey, is TI (TC50/EC50) for this one >= 20? COc1cc2nc(N3CCN(C(=O)c4ccco4)CC3)nc(N)c2cc1OC
Result block: 0
